Each recorded value in this set is attributed to patent US6218400A.

Catalogue of compounds with associated pEC50
# System: Rat aortic smooth muscle cells (RSMC)
# experimental-details: cGMP level measurements in rat aortic smooth muscle cells (RSMC)
# Format: cell-based
# setup-conditions: 10 min, cGMP after ANF (100 nM) stimulation for 10 minutes, dose giving half of the stimulation at saturating concentrations
pEC50: −log10 of the molar value.
test-readout: pEC50

>>> df
                                   compound  comparator  numeric_result
0  CCCCN1C(=O)[C@@H]2Cc3c([nH]c4ccccc34)[C@H](c3ccc(OC)cc3)N2C1=O (relative stereo)           >            6.00
1  COc1ccc([C@H]2c3[nH]c4ccccc4c3C[C@@H]3C(=O)N(C4CCCCC4)C(=O)N23)cc1 (relative stereo) [26 (cis isomer)]           =            6.52
2  O=C1[C@H]2Cc3c([nH]c4ccccc34)[C@@H](c3ccc4c(c3)OCO4)N2C(=O)N1Cc1ccccc1           =            6.70
3  O=C1[C@H]2Cc3c([nH]c4ccccc34)[C@H](c3ccc4c(c3)OCO4)N2C(=O)N1Cc1ccccc1 (relative stereo) [1 (cis isomer)]           =            6.52

* * *

Catalogue of compounds with associated IC50
# measurement-target: human recombinant PDE V (Homo sapiens, UniProt O76074)
# experimental-details: Inhibitory effect on cGMP-PDE (one-step assay, human recombinant PDE V)
# setup-conditions: 0.15 μM 8-[H^3]-cGMP, 2% DMSO, 30 minutes
# Description: cGMP-PDE activity of compounds of the present invention was measured using a one-step assay adapted from Wells at al. (Wells, J. N., Baird, C. E., Wu, Y. J. and Hardman, J. G., Biochim. Biophys. Acta 384, 430 (1975)). The reaction medium contained 50 mM Tris-HCl,pH 7.5, 5 mM Mg-acetate, 250 μg/ml 5'-Nucleotidase, 1 mM EGTA and 0.15 μM 8-[H^3 ]-cGMP. The enzyme used was a human recombinant PDE V (ICOS, Seattle USA). […]
test-readout: IC50

>>> print(df.to_string())
                                   compound  test_readout   result
0  O=C1[C@H]2Cc3c([nH]c4ccccc34)[C@H](c3ccc4c(c3)OCO4)N2C(=O)N1Cc1ccccc1 (relative stereo) [1 (cis isomer)]          IC50  < 10 nM
1  COc1ccc([C@H]2c3[nH]c4ccccc4c3C[C@@H]3C(=O)N(C4CCCCC4)C(=O)N23)cc1 (relative stereo) [26 (cis isomer)]          IC50     7 nM
2  O=C1[C@H]2Cc3c([nH]c4ccccc34)[C@@H](c3ccc4c(c3)OCO4)N2C(=O)N1Cc1ccccc1 [Example 32]          IC50  < 10 nM
